Each record here notes measured composite z-score.
# Assayed target: Calmodulin-1 (Homo sapiens) (UniProt P0DP23)
# Assay summary: small molecules binding calmodulin-1 with EGTA – biochemical, small-molecule microarray, Cy5-labelled CALM1, profiling panel (AID 1111);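 further: labelled calmodulin applied in Tris saline Tween buffer holding calcium plus EGTA and DTT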
# Experimental setup: Cy5-CALM1 binding fluorescence, higher = more signal
Readout type: composite z-score

INSERT INTO results (molecule, numeric_result) VALUES
  ('CC(C)N1C(=O)C[C@@](C(=O)NC2CC2)(c2ccc([N+](=O)[O-])cc2)[C@H]1c1ccc(CO)cc1', -0.673),
  ('COc1cc2c(cc1O)C(C1CC1)N(Cc1cccc(OC(F)(F)F)c1)CC2 (stereo not drawn)', -1.67),
  ('CC(C)C[C@@H]1NC(=O)[C@@H]2C[C@H](C(=O)NCCCCCCN)[C@H](c3cccc(OCCO)c3)N2C1=O', 0.861),
  ('O=C(c1ccccc1)N1C(=O)[C@]2(Cc3ccccc31)N=C(c1ccc(OCCCO)cc1)O[C@@H]2c1ccccc1', 1.43),
  ('COc1ccc([Si](C)(C)[C@@H]2[C@@H](CCO)O[C@]3(C(=O)N(Cc4ccccc4)c4ccc(NC(=O)[C@H](C)O)cc43)[C@H]2C)cc1', 1.46),
  ('O=C1OCCC=C[C@H]2OC34C=CCN(c5ccc6ccccc6c5)C(=O)[C@H]3N(CCCO)C(=O)[C@@H]4C12 (stereo partly drawn)', -0.834),
  ('CC(=O)NCCCC[C@@H]1NC(=O)[C@@H]2C[C@H](C(=O)NCCCCCN)[C@H](c3ccc(O)cc3)N2C1=O', 0.331),
  ('CCCCCN1CC=CC23O[C@@H]4/C=C\CCC(C)OC(=O)C4[C@H]2C(=O)N(C(CO)C(C)C)[C@@H]3C1=O (stereo partly drawn)', -0.983);

###

# Assay summary: plasmodial surface anion channel blockers, osmotic lysis – cell-based, P. falciparum Indochina, OD700, 18 h, primary screen (AID 1157)
# Experimental setup: P. falciparum Indochina infected erythrocytes, osmotic lysis OD700, 18 h; higher = more signal, called active from +8 up or from −8 down
Readout type: z-score

INSERT INTO assay_data (compound, readout_type, numeric_result) VALUES
  ('COc1ccc(C#Cc2ccc3c(c2)[C@]2(C(=O)N3)[C@H](c3ccc(OCCO)cc3)N3[C@H](c4ccccc4)[C@H](c4ccccc4)OC(=O)[C@H]3[C@@H]2C(=O)NC[C@H](O)c2ccccc2)cc1', 'z-score', 1.08),
  ('COc1ccc(C#Cc2ccc3c(c2)[C@]2(C(=O)N3)[C@H](C(=O)O)[C@H]3C(=O)O[C@H](c4ccccc4)[C@H](c4ccccc4)N3[C@@H]2c2ccc(O)cc2)cc1', 'z-score', -2.8),
  ('CCCCN1CC=CC23O[C@@H]4/C=C\CCC(C)OC(=O)C4[C@H]2C(=O)N(CCCO)[C@@H]3C1=O (some centres not stated)', 'z-score', 0.408),
  ('O=C(O)[C@@H]1C[C@@H]2C(=O)N3CCC[C@H]3C(=O)N2[C@@H]1c1ccc(O)cc1', 'z-score', -1.54),
  ('COCC(=C=CC[C@H](O)c1ccccc1OCCO)C[C@H](O)c1ccccn1', 'z-score', 0.382),
  ('[N-]=[N+]=NCc1ccccc1[C@H]1OC(c2ccc(OCCCO)cc2)=N[C@@]1(Cc1ccccc1N=[N+]=[N-])C(=O)NCC(O)CO (some centres not stated)', 'z-score', 2.09),
  ('[N-]=[N+]=Nc1ccccc1C[C@]1(C(=O)NCCN2CCOCC2)COC(c2ccc(OCCCO)cc2)=N1', 'z-score', 0.913),
  ('COc1ccc([Si](C)(C)[C@@H]2[C@@H](CCO)O[C@]3(C(=O)N(Cc4ccccc4)c4ccc(N5CCOC5=O)cc43)[C@H]2C)cc1', 'z-score', -1.09),
  ('COc1ccccc1CN1C(=O)c2ccccc2[C@](Cc2ccccc2I)(C(=O)O)[C@@H]1c1ccc(CO)cc1', 'z-score', 0.426),
  ('CCOC(=O)C=Cc1cccc(C)c1O', 'z-score', -2.11),
  ('COC(=O)C1=CC(CCCO)=CC(c2cccs2)N(C)C=C1C(=O)OC (configuration not stated)', 'z-score', 0.426),
  ('N#Cc1ccc(NN2C(C(O)c3ccc(Br)cc3)C=CC3C(=O)N(c4ccccc4)C(=O)C32)cc1 (configuration not stated)', 'z-score', -0.348),
  ('O=C1OCCC=C[C@H]2OC34C=CCN(Cn5nnc6ccccc65)C(=O)[C@H]3N(CCCO)C(=O)[C@@H]4C12 (some centres not stated)', 'z-score', -1.32),
  ('CC(C)[Si](C#CCCCC#N)(O[C@H](c1ccccc1)c1cn(Cc2ccccc2)nn1)C(C)C', 'z-score', 0.137),
  ('O=c1cccc(-c2ccc([N+](=O)[O-])cc2)o1', 'z-score', -1.08),
  ('Cc1ccc(S[C@]2(C(=O)O)CC(=O)N(C3CCCCC3)[C@@H]2c2ccc(CO)cc2I)cc1', 'z-score', 0.99),
  ('CC(C)(C)OC(=O)CC[C@@]1(C(=O)NCC(O)CO)N=C(c2ccc(OCCCO)cc2)O[C@@H]1c1ccccc1CN=[N+]=[N-] (some centres not stated)', 'z-score', 0.936),
  ('CCCCC(CC)C(O)C1C=CC2C(=O)N(c3ccccc3)C(=O)C2N1Nc1ccc(C#N)cc1 (configuration not stated)', 'z-score', 1.54),
  ('C=CC[C@@]1(C(=O)NCCCOC)N=C(c2ccc(OCCCO)cc2)O[C@@H]1c1ccccc1', 'z-score', 0.406),
  ('[N-]=[N+]=Nc1ccccc1C[C@]1(C(=O)O)COC(c2ccc(OCCCO)cc2)=N1', 'z-score', 0.935),
  ('COc1cc2c(cc1O)C=[N+](Cc1sc3ccccc3c1Cl)CC2', 'z-score', 1.58),
  ('COC(=O)[C@@H]1N=C(c2ccc(OCCCO)cc2)O[C@@H]1c1ccccc1', 'z-score', 0.82),
  ('COCCOC(=O)N1C(=O)[C@@]2(c3cc(C#CC4(O)CCCCCC4)ccc31)[C@H](C(=O)N1CCc3cc(OC)c(OC)cc3C1)[C@H]1C(=O)O[C@H](c3ccccc3)[C@H](c3ccccc3)N1[C@@H]2c1ccc(OCCO)cc1', 'z-score', 1.64),
  ('CCOC(=O)C[C@H]1[C@H](OC(=O)c2cc3ccccc3oc2=O)[C@@H](NC(=O)CC(C)C)c2cc(OCCCO)ccc2N1C(=O)c1ccc2ccccc2n1', 'z-score', 0.647),
  ('CC(c1ccccc1)C(O)C1C=CC2C(=O)N(C)C(=O)C2N1Nc1ccccc1 (configuration not stated)', 'z-score', 0.999),
  ('NC(=O)NCC#Cc1ccc2c(c1)[C@]1(C(=O)N2)[C@H](c2ccccc2OCCO)N2[C@H](c3ccccc3)[C@H](c3ccccc3)OC(=O)[C@H]2[C@@H]1C(=O)NC[C@H](O)c1ccccc1', 'z-score', -1.54),
  ('C=CC[C@@H](OC(=O)Nc1ccc(SC)cc1)c1ccc(O)c(F)c1', 'z-score', 1.04),
  ('COC(=O)[C@@]1(Cc2ccc(F)cc2)[C@H]2c3cc(C(=O)N4CCCC4)n(Cc4ccc(C)c(F)c4F)c3C[C@H]2CN1C(=O)c1ccccc1', 'z-score', 1.06),
  ('CCCC[C@@H]1C[C@H]1[C@@H](NC(=O)c1cccs1)c1ccccc1C(F)(F)F', 'z-score', 0.544),
  ('O=C1NC(=O)C2C1C=CC(C(O)c1ccco1)N2Nc1ccc(Cl)cc1Cl (configuration not stated)', 'z-score', 1.2),
  ('CCC1=C2CN(Cc3ccccc3)[C@@H](C(=O)Cc3ccccc3)C2C=CCC1 (some centres not stated)', 'z-score', -2),
  ('CCCC=C(CCC)[C@@H](NP(=O)(c1ccccc1)c1ccccc1)c1ccc(-c2ccccc2)cc1', 'z-score', 0.96);

###

# Assayed target: Homeobox protein Hox-A13 (Mus musculus)
# Assay summary: disruptors of Hoxa13 oligonucleotide interaction – biochemical, fluorescence polarization, labeled oligonucleotide, primary screen (AID 1185)
# Experimental setup: Hoxa13:DNA binding, 15 min, higher = more signal, called active from +8 up or from −8 down
Readout type: z-score

INSERT INTO assay_data (molecule, numeric_result) VALUES
  ('CC(C)(C)OC(=O)CC[C@@]1(C(=O)NCC(O)CO)N=C(c2ccc(OCCCO)cc2)O[C@@H]1c1ccccc1CN=[N+]=[N-] (some centres undefined)', -5.44),
  ('CC[C@@H]1C=C(C(=O)O)[C@H](c2ccc(C#N)cc2)N1S(=O)(=O)c1ccc(C)cc1', -4.62),
  ('COCCOC(=O)N1C(=O)[C@@]2(c3cc(C#CC4=CCCCC4)ccc31)[C@H](c1ccccc1OCCO)N1[C@H](c3ccccc3)[C@H](c3ccccc3)OC(=O)[C@H]1[C@@H]2C(=O)N1CCN(c2ncccn2)CC1', 1.02),
  ('O=C1OCCC/C=C\[C@H]2OC34C=CCN(c5ccc6ccccc6c5)C(=O)[C@H]3N(CCO)C(=O)[C@@H]4C12 (some centres undefined)', -5.35),
  ('CC(C)=C1C(=O)C(c2ccccc2)=C2CN3C(=O)N(CCc4ccccc4)C(=O)[C@]3(Cc3ccc(C(F)(F)F)cc3)[C@H]21', -1.59),
  ('[N-]=[N+]=Nc1ccccc1C[C@]1(C(=O)O)COC(c2ccc(OCCCO)cc2)=N1', -4.69),
  ('CCCCN1CC=CC23O[C@@H]4/C=C\CCC(C)OC(=O)C4[C@H]2C(=O)N(CCCO)[C@@H]3C1=O (some centres undefined)', -3.97),
  ('COC(=O)c1c(CC[C@@H](CO)NC(=O)N2CCC[C@H]2Cn2cc(C3(O)CCCCC3)nn2)oc(C(C)=O)c1C(=O)OC', -4.77),
  ('COc1ccc([Si](C)(C)[C@@H]2[C@@H](CCO)O[C@]3(C(=O)N(Cc4ccccc4)c4ccc(N5CCOC5=O)cc43)[C@H]2C)cc1', -1.94),
  ('COCCOC(=O)N1C(=O)[C@@]2(c3cc(C#CCCO)ccc31)[C@H](C(=O)Nc1nc3ccccc3s1)[C@H]1C(=O)O[C@H](c3ccccc3)[C@H](c3ccccc3)N1[C@@H]2c1ccc(O)cc1', -3.01),
  ('COCCOC(=O)N1C(=O)[C@@]2(c3cc(C#CC4(O)CCCCCC4)ccc31)[C@H](c1ccc(O)cc1)N1[C@H](c3ccccc3)[C@H](c3ccccc3)OC(=O)[C@H]1[C@@H]2C(=O)N1CCN(c2ncccn2)CC1', -1.62),
  ('CCCCCN1CC=CC23O[C@@H]4C=CCCOC(=O)C4[C@H]2C(=O)N(CCCCCCO)[C@@H]3C1=O (some centres undefined)', -4.59),
  ('COc1ccc(CCNC(=O)[C@@H]2c3ccccc3C(=O)N(C3CCCCC3)[C@H]2c2ccc(CO)cc2)cc1', -3.32),
  ('COc1cc2c(cc1O)C(C1CC1)N(Cc1cccc(OC(F)(F)F)c1)CC2 (centres undefined)', -5.17),
  ('COCCOC(=O)N1C(=O)[C@@]2(c3cc(C#CC4=CCCCC4)ccc31)[C@H](C(=O)Nc1nc3ccccc3s1)[C@H]1C(=O)O[C@H](c3ccccc3)[C@H](c3ccccc3)N1[C@@H]2c1ccc(O)cc1', -0.148),
  ('CCCC=C(CCC)[C@@H](NC(=O)C(C)(C)C)c1ccc(C(=O)OC)cc1', -0.168),
  ('[N-]=[N+]=Nc1ccccc1C[C@]1(C(=O)NCCN2CCOCC2)COC(c2ccc(OCCCO)cc2)=N1', -6.04),
  ('C=C[C@@H](CO)N(Cc1ccc(OC)cc1)S(=O)(=O)c1ccc(Br)cc1', -3.98),
  ('NCCCCCNC(=O)[C@@H]1C[C@@H]2C(=O)N[C@@H](CCCCN)C(=O)N2[C@@H]1c1ccc(O)cc1', 1.23),
  ('CCCCCCCCCC(O)C1C=CC2C(=O)N(c3ccccc3)C(=O)C2N1Nc1cc(OC)c(OC)c(OC)c1 (centres undefined)', -2.06),
  ('C=C[C@H](C)[C@H](OC(=O)Nc1ccc(SC)cc1)c1ccc(OCCO)cc1', -5.1),
  ('CCOc1cc(C(O)C2C=CC3C(=O)NC(=O)C3N2Nc2ccc(Cl)cc2Cl)ccc1O (centres undefined)', -2.05),
  ('CC(C)N1C(=O)c2ccccc2[C@@H](C(=O)NCCN2CCOCC2)[C@@H]1c1ccc(CO)cc1', -4.17),
  ('COc1ccc([Si](C)(C)[C@H]2[C@H](CC(=O)N3Cc4ccccc4C[C@H]3CO)O[C@@]3(C(=O)N(Cc4ccc(N5CCOC5=O)cc4)c4ccccc43)[C@@H]2C)cc1', -3.92),
  ('CCCNC(=O)[C@@H]1c2ccccc2C(=O)N(Cc2ccc(OC(F)(F)F)cc2)[C@H]1c1ccc(CO)cc1', -3),
  ('CCCCC[C@H]1OC[C@@]23C=C(Br)[C@@H](CC12)[C@@]1(CO1)C3=O (some centres undefined)', -2.47),
  ('COc1cc2c(cc1O)C(c1ccc(CN3CCCC3)cc1)N(Cc1cc3c(cc1Br)OCO3)CC2 (centres undefined)', -1.73),
  ('C=C[C@@H](OC)[C@H](OC(=O)Nc1ccc(OC)cc1)c1ccc(O)c(F)c1', -2.8),
  ('NC(=O)NCC#Cc1ccc2c(c1)[C@]1(C(=O)N2)[C@H](C(=O)N2CCN(c3ncccn3)CC2)[C@H]2C(=O)O[C@H](c3ccccc3)[C@H](c3ccccc3)N2[C@@H]1c1ccc(O)cc1', -1.83);
